system: TRPC4 (transient receptor potential cation channel C4), mouse; test: TRPC4 inhibition by TRPC6 hit compounds, confirmation, selectivity assay for TRPC6 modulator project, cell-based, second screen, HEK293 TRPC4/mu-opioid, membrane potential dye (AID 488928); settings: membrane potential dye fluorescence, at 10 µM, stimulated with maximal-effect DAMGO;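 also: TRPC4 counter screen for TRPC6 hits run under conditions tuned for TRPC6 not TRPC4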
Some of the results follow. Active and inactive are the calls of the source.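 The calls were made as follows: active = drop in membrane potential signal beyond 5 SD of the control wells in both duplicate plates; inactive = the rest.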
Hello, when you answer, please use one of the following outcomes: 1.0 for active, 0.0 for inactive

Would you please look over these solved cases?
# compound, answer_label
records = [
    ("C/C(=N\\Nc1nc2ccccc2[nH]1)c1cccs1", 1.0),
    ("CCC(C)(C)NC(=O)CN(C(=O)CCC(=O)Nc1nccs1)c1ccc2c(c1)OCO2", 0.0),
]

Recorded test call requested for `CN(C)c1ccc(/C=C2\NC(=S)N(Cc3ccccc3)C2=O)cc1`
0.0

Recorded test call requested for CN(C)c1cc(N)c2ccccc2n1 (tested in a mixture with another compound)
1.0

Recorded test call requested for `O=C(C[n+]1ccc2c(c1)nnn2-c1ccccc1)c1ccc(Cl)cc1`
1.0

----------
molecular target: Potassium voltage-gated channel subfamily KQT member 1 (Homo sapiens); test: KCNQ1 channel current potentiators, confirmation, orthogonal assay for KCNQ1 potentiator project, IonWorks patch clamp, KCNQ1-CHO cells (AID 493184); conditions: automated patch clamp current, at 10 µM
The source made the active and inactive calls.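 How the source made its calls: active means current rise at least 3 SD above the untreated control mean in each of two repeat wells; inactive means the rest.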
Hello, when you answer, please use one of the following outcomes: yes (1) = active, no (0) = inactive

# molecule, answer_label
data = [
    ("CCN(CC)CC(O)Cn1c2ccccc2c2ccccc21 (stereo not drawn)", "no (0)"),
    ("COc1cc(C(=O)NC(=S)NC(C)C)cc(OC)c1OC", "no (0)"),
    ("Cc1ccc(C)c(N/C(N)=N/c2nc(C)cc(C)n2)c1", "no (0)"),
    ("CCC1=NN2C(=N)/C(=C/c3ccc(OS(=O)(=O)c4ccccc4)c(OC)c3)C(=O)N=C2S1", "no (0)"),
    ("Cn1nnnc1SCC(=O)NCc1ccc2c(c1)OCO2", "no (0)"),
    ("Cc1snnc1C(=O)NC(=S)Nc1ccccc1", "no (0)"),
    ("O=C(NNc1cc(N2CCOCC2)nc(N2CCOCC2)n1)C12CC3CC(CC(C3)C1)C2", "no (0)"),
    ("CC(C)CNC(=S)NC(=O)c1ccc([N+](=O)[O-])cc1", "no (0)"),
    ("Cc1ccc(NC(=O)C(=O)NNC(=O)c2ccccc2C)cc1Cl", "no (0)"),
    ("O=C(Nc1nnc(-c2ccc(F)cc2)o1)c1cc(Cl)sc1Cl", "no (0)"),
]

Recorded test call requested for COc1ccc(-c2csc(NC(=O)C3CCCCN3S(=O)(=O)c3ccccc3)n2)cc1 (stereo not drawn)
yes (1)

Recorded test call requested for `Cc1ccc(C2=CSC3=NS(=O)(=O)CCN23)cc1`
no (0)

Recorded test call requested for `C/C(=N\NC(=S)NCCc1ccccc1)c1cccs1`
no (0)

Recorded test call requested for CCOC(=O)C1CCN(S(=O)(=O)c2ccc3c4c2CC(=O)N4CC(C)S3)CC1 (stereo not drawn)
no (0)

Recorded test call requested for `NC(=S)n1[nH]c(-c2ccc([N+](=O)[O-])cc2)c(N=Nc2cccc(Cl)c2)c1=O`
no (0)
